Target Under Test: Adenosine receptor A1 (Rattus norvegicus, UniProt P25099)
Sequence (P25099 whole entry): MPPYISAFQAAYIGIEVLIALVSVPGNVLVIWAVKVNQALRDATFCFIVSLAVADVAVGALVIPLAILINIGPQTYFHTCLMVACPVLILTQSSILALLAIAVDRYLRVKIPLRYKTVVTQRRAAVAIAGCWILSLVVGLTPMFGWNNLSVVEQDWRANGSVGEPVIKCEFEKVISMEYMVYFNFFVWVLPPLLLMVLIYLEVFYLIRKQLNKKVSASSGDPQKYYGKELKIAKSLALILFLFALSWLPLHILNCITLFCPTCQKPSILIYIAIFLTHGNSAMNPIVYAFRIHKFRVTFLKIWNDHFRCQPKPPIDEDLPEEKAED
Listed compounds paired with reported Ki
Just the number please, in µM, no unit attached.

Illustrative cases are given below, each with its answer.
> print(dat)
                                   compound  reported.property  result.value
1  O=c1c2[nH]cnc2n(Cc2ccccc2)c(=O)n1Cc1ccccc1                 Ki             2
2      CC(C)Cn1c(=O)c2nc[nH]c2n(CC(C)C)c1=O                 Ki           0.5
3  Cn1c(=O)c2c(ncn2CCO)n(C)c1=O [ETOFYLLINE]                 Ki           105
4  Cn1c(=O)c2c(ncn2CCCl)n(C)c1=O [7-CHLOROETHYLTHEOPHYLLINE]                 Ki             8
5            Cn1c(=O)n(CCO)c(=O)c2[nH]cnc21                 Ki            85

Query: Dear colleague, please send me the reported Ki for C=CCn1cnc2c1c(=O)n(C)c(=O)n2CC(C)C when you can.
Response: 13

Query: Dear colleague, please send me the reported Ki for CCCn1c(=O)c2c(ncn2CCC)n(CCC)c1=O when you can.
Response: 2.6

Query: Dear colleague, please send me the reported Ki for C#CCn1cnc2c1c(=O)n(C)c(=O)n2CC(C)C when you can.
Response: 3.1

Query: Dear colleague, please send me the reported Ki for CCCn1c(=O)c2c(ncn2C)n(CCC)c1=O when you can.
Response: 7

Query: Dear colleague, please send me the reported Ki for CCCn1c(=O)c2c(ncn2Cc2ccccc2)n(CCC)c1=O when you can.
Response: 1

###

Listed compounds paired with reported Ki
Target Under Test: UniProt:P46616
Sequence (P46616 whole entry): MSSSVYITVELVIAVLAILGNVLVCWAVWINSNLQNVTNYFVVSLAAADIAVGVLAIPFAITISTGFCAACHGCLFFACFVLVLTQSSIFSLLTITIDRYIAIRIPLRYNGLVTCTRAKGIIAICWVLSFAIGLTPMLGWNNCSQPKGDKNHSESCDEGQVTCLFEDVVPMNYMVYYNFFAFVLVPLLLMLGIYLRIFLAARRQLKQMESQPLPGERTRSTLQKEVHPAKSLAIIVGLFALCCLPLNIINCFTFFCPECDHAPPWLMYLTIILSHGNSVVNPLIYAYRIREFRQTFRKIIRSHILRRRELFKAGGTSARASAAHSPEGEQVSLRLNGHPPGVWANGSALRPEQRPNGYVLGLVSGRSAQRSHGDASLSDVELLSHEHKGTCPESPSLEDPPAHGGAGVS
Test Name: Compound was evaluated for its ability to antagonise cyclic [3H]AMP accumulation in [3H]adenine-labeled guinea pig cerebral cortical slices.
Just the number please, in µM, no unit attached.

> print(dat)
                            compound  target.under.test  result.value
1  CCCn1cnc2c1c(=O)n(C)c(=O)n2CC(C)C     UniProt:P46616            11

Query: Report Ki under test system UniProt:P46616 for C#CCn1c(=O)c2c(ncn2C)n(C)c1=O .
Response: 6

Query: Report Ki under test system UniProt:P46616 for CCCn1c(=O)n(C)c(=O)c2c1ncn2C .
Response: 9

Query: Report Ki under test system UniProt:P46616 for Cn1c(=O)c2nc[nH]c2n(CCO)c1=O .
Response: 80

Query: Report Ki under test system UniProt:P46616 for CCn1c(=O)c2nc[nH]c2n(CC)c1=O .
Response: 3

Query: Report Ki under test system UniProt:P46616 for Cn1c(=O)c2c(ncn2CCCl)n(C)c1=O [7-CHLOROETHYLTHEOPHYLLINE] .
Response: 4.5

Query: Report Ki under test system UniProt:P46616 for CCn1c(=O)c2nc[nH]c2n(C)c1=O .
Response: 5

Query: Report Ki under test system UniProt:P46616 for C#CCn1cnc2c1c(=O)n(C)c(=O)n2CC(C)C .
Response: 2.8

Query: Report Ki under test system UniProt:P46616 for Cn1c(=O)c2c(ncn2Cc2ccccc2)n(C)c1=O .
Response: 14

Query: Report Ki under test system UniProt:P46616 for C=CCn1c(=O)c2c(ncn2C)n(CC=C)c1=O .
Response: 4

Query: Report Ki under test system UniProt:P46616 for CC(C)Cn1c(=O)n(C)c(=O)c2c1ncn2C .
Response: 7
